FYI, the data here is from ChEMBL document CHEMBL3352394.

Reported MIC by item:
Test system: Acinetobacter baumannii
Assay: Antimicrobial activity against Acinetobacter baumannii
Format: functional

Examples with answers:
Br.CCN(CC)CCn1c(=N)n(CCCOc2ccc(Cl)cc2Cl)c2ccccc21
13 µM
CCN(CC)CCn1c(=N)n(CC(O)COc2ccc(Cl)cc2Cl)c2ccccc21 (stereo not drawn)
25 µM

Prompt line: Lab request: please report MIC under test system Acinetobacter baumannii for Nc1nc2ccccc2n1CCCOc1ccc(Cl)cc1Cl
Response line: 25 µM

---

Test: Half life in mouse liver microsomes
Type: ADME
property_measured: half-life (min)
The response must be a number in min with no trailing unit.

Examples with answers:
N=c1n(CCCOc2ccc(Cl)cc2Cl)c2ccccc2n1CC(=O)N1CCN(c2ccccc2)CC1.O=C(O)C(F)(F)F
25.2
Br.CCN(CC)CCn1c(=N)n(CCCOc2ccc(Cl)cc2Cl)c2ccccc21
13

Proceed to the following item.
Prompt line: // half-life lookup, key: N=c1n(CCCOc2ccc(Cl)cc2Cl)c2ccccc2n1CCCc1ccccc1.O=C(O)C(F)(F)F
Response line: 48.2

---

Test system: Acinetobacter baumannii
Assay: Antimicrobial activity against Acinetobacter baumannii
Type: functional
Reported MIC by item:
# answer = value followed by unit

Examples with answers:
N=c1n(CCCOc2ccc(Cl)cc2Cl)c2ccccc2n1CCCc1ccccc1.O=C(O)C(F)(F)F
25 µM
CCCN(CCC)CCn1c(=N)n(CCCOc2ccc(Cl)cc2Cl)c2ccccc21
25 µM
N=c1n(CCCOc2ccc(Cl)cc2Cl)c2ccccc2n1CCN1CCCC1
13 µM
CCN(CC)CCCNc1nc2ccccc2n1CCCOc1ccc(Cl)cc1Cl
50 µM

Proceed to the following item.
Prompt line: // MIC lookup, key: N=c1n(CCCOc2ccc(Cl)cc2Cl)c2ccccc2n1CCCN1CCCCC1
Response line: 50 µM

---

Test: Half life in human liver microsomes
Format: ADME
property_measured: half-life (min)
The response must be a number in min with no trailing unit.

Prompt line: // half-life lookup, key: Br.CCN(CC)CCn1c(=N)n(CCCOc2ccc(Cl)cc2Cl)c2ccccc21
Response line: 9.2

---

Tested on: Acinetobacter baumannii
Test: Antimicrobial activity against Acinetobacter baumannii
Type: functional
property_measured: MIC (µM)
The response must be a number in µM with no trailing unit.

Examples with answers:
CCn1c(=N)n(CCCOc2ccc(Cl)cc2Cl)c2ccccc21
50
CC(C)N(CCn1c(=N)n(CCCOc2ccc(Cl)cc2Cl)c2ccccc21)C(C)C
13
N=c1n(CCCOc2ccc(Cl)cc2Cl)c2ccccc2n1Cc1ccc(C(F)(F)F)nc1.O=C(O)C(F)(F)F
50
CCN(CC)CCn1c(=N)n(CCOc2ccc(Cl)cc2Cl)c2ccccc21
100

Prompt line: // MIC lookup, key: CCCCn1c(=N)n(CCCOc2ccc(Cl)cc2Cl)c2ccccc21
Response line: 50

Prompt line: Entry Cc1noc(C)c1Cn1c(=N)n(CCCOc2ccc(Cl)cc2Cl)c2ccccc21 please
Response line: 100

Prompt line: Entry N=c1n(CCCOc2ccc(Cl)cc2Cl)c2ccccc2n1CCc1ccccn1 please
Response line: 100

Prompt line: Entry CC(C)(C)OC(=O)N1CCC(CCn2c(=N)n(CCCOc3ccc(Cl)cc3Cl)c3ccccc32)CC1 please
Response line: 50

Prompt line: Entry CCN(CC)CCn1c(=N)n(CCCc2ccc(Cl)cc2Cl)c2ccccc21 please
Response line: 25

---

System: HepG2
Experiment: Cytotoxicity against human HepG2 cells after 1 hr by MTS reduction assay in absence of serum
Type: cell-based
Settings: HepG2, 1 h
Reported pIC50 by item:
Note on pIC50: it is the negative log10 of concentration, concentration in mol/L.

Cc1noc(C)c1Cn1c(=N)n(CCCOc2ccc(Cl)cc2Cl)c2ccccc21
3.77
N=c1n(CCCOc2ccc(Cl)cc2Cl)c2ccccc2n1Cc1ccc(C(F)(F)F)nc1.O=C(O)C(F)(F)F
4.46

Prompt line: Lab request: please report pIC50 under test system HepG2 for N=c1n(CCCOc2ccc(Cl)cc2Cl)c2ccccc2n1CCc1ccccn1
Response line: 4.22

---

Experiment: Cytotoxicity against mouse NIH/3T3 cells after 1 hr by MTS reduction assay in absence of serum
Assay type: cell-based
Conditions: NIH3T3, 1 h
property_measured: log10 of IC50 (log10 of the value in µM)
log10 IC50, µM

Examples with answers:
Br.CCN(CC)CCn1c(=N)n(CCCOc2ccc(Cl)cc2Cl)c2ccccc21
1.30
N=c1n(CCCOc2ccc(Cl)cc2Cl)c2ccccc2n1Cc1ccc(C(F)(F)F)nc1.O=C(O)C(F)(F)F
1.34

Prompt line: // log10 of IC50 lookup, key: CCCCn1c(=N)n(CCCOc2ccc(Cl)cc2Cl)c2ccccc21
Response line: 1.45

Prompt line: Entry N=c1n(CCCOc2ccc(Cl)cc2Cl)c2ccccc2n1CCN1CCCC1 please
Response line: 1.08

Prompt line: Entry N=c1n(CCCOc2ccc(Cl)cc2Cl)c2ccccc2n1CC(=O)N1CCN(c2ccccc2)CC1.O=C(O)C(F)(F)F please
Response line: 2.60

Prompt line: Entry CC(C)(C)OC(=O)N1CCC(CCn2c(=N)n(CCCOc3ccc(Cl)cc3Cl)c3ccccc32)CC1 please
Response line: 1.40

Prompt line: Entry N=c1n(CCCOc2ccc(Cl)cc2Cl)c2ccccc2n1CCCc1ccccc1.O=C(O)C(F)(F)F please
Response line: 1.56

Prompt line: Entry CCOCCOCCn1c(=N)n(CCCOc2ccc(Cl)cc2Cl)c2ccccc21 please
Response line: 1.79

---

Assay: Selectivity ratio of IC50 for oxidative phosphorylation system-mediated ATP synthesis in bovine heart submitochondrial particle to IC50 for oxidative phosphorylation system-mediated ATP synthesis in Acinetobacter baumannii membranes
Format: cell membranes
Reported Ratio IC50 by item:
Output spec: single numeric token, no unit.

CCn1c(=N)n(CCCOc2ccc(Cl)cc2Cl)c2ccccc21
1.4

Prompt line: // Ratio IC50 lookup, key: CCN(CC)CCn1c(N)nc2ccccc21
Response line: 2.5

Prompt line: Entry OC(COc1ccc(Cl)cc1Cl)Cn1c(NCCCN2CCOCC2)nc2ccccc21 (stereo unspecified) please
Response line: 1.2

Prompt line: Entry CCCN(CCC)CCn1c(=N)n(CCCOc2ccc(Cl)cc2Cl)c2ccccc21 please
Response line: 1

Prompt line: Entry N=c1n(CCCOc2ccc(Cl)cc2Cl)c2ccccc2n1CC(=O)N1CCN(c2ccccc2)CC1.O=C(O)C(F)(F)F please
Response line: 0.8

Prompt line: Entry Cc1noc(C)c1Cn1c(=N)n(CCCOc2ccc(Cl)cc2Cl)c2ccccc21 please
Response line: 3.2

Prompt line: Entry CCCCn1c(=N)n(CCCOc2ccc(Cl)cc2Cl)c2ccccc21 please
Response line: 0.5

---

Tested on: HepG2
Assay: Cytotoxicity against human HepG2 cells after 1 hr by MTS reduction assay in absence of serum
Type: cell-based
Conditions: HepG2, 1 h
Reported pIC50 by item:
Note on pIC50: it is the negative log10 of concentration, concentration in mol/L.

Examples with answers:
N=c1n(CCCOc2ccc(Cl)cc2Cl)c2ccccc2n1CCCc1ccccc1.O=C(O)C(F)(F)F
4.19
N=c1n(CCCOc2ccc(Cl)cc2Cl)c2ccccc2n1CCN1CCCC1=O
4.20
N=c1n(CCCOc2ccc(Cl)cc2Cl)c2ccccc2n1CCn1ccnc1
3.86
Br.CCN(CC)CCn1c(=N)n(CCCOc2ccc(Cl)cc2Cl)c2ccccc21
4.08
N=c1n(CCCOc2ccc(Cl)cc2Cl)c2ccccc2n1CCN1CCCC1
4.17

Proceed to the following item.
Prompt line: Lab request: please report pIC50 under test system HepG2 for CCN(CC)C(=O)Cn1c(=N)n(CCCOc2ccc(Cl)cc2Cl)c2ccccc21
Response line: 3.84

---

Assay: Cytotoxicity against mouse NIH/3T3 cells after 1 hr by MTS reduction assay in absence of serum
Assay type: cell-based
Conditions: NIH3T3, 1 h
Reported IC50 by item:
The response must be a number in µM with no trailing unit.

Examples with answers:
CCn1c(=N)n(CCCOc2ccc(Cl)cc2Cl)c2ccccc21
24
CCN(CC)C(=O)Cn1c(=N)n(CCCOc2ccc(Cl)cc2Cl)c2ccccc21
68
N=c1n(CCCOc2ccc(Cl)cc2Cl)c2ccccc2n1CCN1CCOCC1
76

Prompt line: // IC50 lookup, key: CCCN(CCC)CCn1c(=N)n(CCCOc2ccc(Cl)cc2Cl)c2ccccc21
Response line: 28

Prompt line: Entry N=c1n(CCCOc2ccc(Cl)cc2Cl)c2ccccc2n1CCN1CCCC1=O please
Response line: 99

Prompt line: Entry N=c1n(CCCOc2ccc(Cl)cc2Cl)c2ccccc2n1CCc1ccccn1 please
Response line: 36

Prompt line: Entry N=c1n(CCCOc2ccc(Cl)cc2Cl)c2ccccc2n1CCn1ccnc1 please
Response line: 61

Prompt line: Entry CC(C)N(CCn1c(=N)n(CCCOc2ccc(Cl)cc2Cl)c2ccccc21)C(C)C please
Response line: 19

Prompt line: Entry N=c1n(CCCOc2ccc(Cl)cc2Cl)c2ccccc2n1CCCN1CCCCC1 please
Response line: 37

Prompt line: Entry Cc1noc(C)c1Cn1c(=N)n(CCCOc2ccc(Cl)cc2Cl)c2ccccc21 please
Response line: 94
